Tested on: DLD-1 colon
EXPERIMENT NOTES: NCI tumour cell line growth inhibition, 48 h
ENDPOINT: TGI

Quick batch: TGI for everything below.
1. c1ccc2c(CNCCCCCCCCNCc3cccc4ccccc34)cccc2c1
2. Cc1ccc(-c2nnc3s/c(=C\c4ccc(N(C)C)cc4)c(=O)n23)cc1
3. O=[N+]([O-])C=C1c2ccccc2-c2ccccc21

1: 4.07 µM; 2: > 100 µM; 3: 7.71 µM

###

Give TGI for every item shown.
System: MALME-3M melanoma
EXPERIMENT NOTES: NCI tumour cell line growth inhibition, 48 h

Cn1c(=O)ccc2c(=O)c3ccccc3oc21
> 100 µM
Cc1ccc(-c2nnc3s/c(=C\c4ccc(N(C)C)cc4)c(=O)n23)cc1
> 100 µM
COC(=O)/N=[N+](\[O-])C(c1ccccc1)c1ccccc1
> 100 µM

Quick batch: TGI for everything below.
1. COc1cc2nc3cc([N+](=O)[O-])ccc3c(NCCNCC(C)O)c2cc1OC (stereo not drawn)
2. COc1ccc(OC)c(/C=C/c2ccnc3ccccc23)c1

1. 2.25 µM
2. 21.5 µM

###

Test system: RPMI-8226 leukemia
EXPERIMENT NOTES: NCI tumour cell line growth inhibition, 48 h
ENDPOINT: TGI

Worked examples follow.
COc1cc(CNc2cnc3ccc(N)cc3n2)cc(OC)c1OC
> 100 µM
COc1cccc(NC(=O)CC(=O)NN2C(=O)/C(=C/c3ccc(N(CCC#N)CCC#N)cc3)N=C2c2cc([N+](=O)[O-])ccc2Cl)c1
> 100 µM
CCOC(=O)c1sc2nc1CSc1sc(=S)sc1SCc1nc(sc1C(=O)OCC)-c1nc(c(C(=O)OCC)s1)CSc1sc(=S)sc1SCc1nc-2sc1C(=O)OCC
> 10 µM
Nc1nn(C(=O)Nc2c(F)cccc2F)c2ccccc12
> 100 µM
N#CCc1nnc(N)o1
> 100 µM

We now examine a further compound.
Which TGI is reported with RPMI-8226 leukemia for this entry: Cc1ccc(S(=O)(=O)OCCOCCOCCOCCOCCOS(=O)(=O)c2ccc(C)cc2)cc1 ?
92.7 µM

###

System: A549 NSCLC
EXPERIMENT NOTES: NCI tumour cell line growth inhibition, 48 h
Give TGI for every item shown.

Worked examples follow.
COC(=O)/N=[N+](\[O-])C(c1ccccc1)c1ccccc1
> 100 µM
COc1ccc2c(c1OC)C(=O)N/C2=C\c1c(CCN(C)C)cc2c(c1OC)OCO2
> 100 µM

We now examine a further molecule.
Tell me the measured TGI of CCC1CCC2c3c([nH]c4ccc(C)cc34)C3C(=O)N(N(C)C)C(=O)C3C2C1 (stereo not drawn) , please.
> 100 µM

###

Test system: COLO 205 colon
EXPERIMENT NOTES: NCI tumour cell line growth inhibition, 48 h
Give TGI for every item shown.

CC(C)c1ccc(/C=C/c2cc(C(=O)NNC(=O)NC3CCCCC3)nc(=S)[nH]2)cc1
> 100 µM
CC(C)=NNC(=S)NC12CC3CC(CC(C3)C1)C2
> 100 µM

We now examine a further compound.
Tell me the measured TGI of Nc1ncn([C@H]2C[C@H](OP(=O)(O)OC[C@H]3O[C@@H](n4cnc5c(=O)[nH]c(N)nc54)C[C@@H]3O)[C@@H](CO)O2)c(=O)n1 , please.
> 100 µM

###

Give TGI for every item shown.
System: OVCAR-8 ovarian
EXPERIMENT NOTES: NCI tumour cell line growth inhibition, 48 h

Worked examples follow.
O=C([CH-]C(=O)c1ccccc1)c1ccccc1.O=C([CH-]C(=O)c1ccccc1)c1ccccc1.O=C([CH-]C(=O)c1ccccc1)c1ccccc1.[Cl-].[Hf+4]
77.7 µM
O=C(O)CCCN=C(C1=C(O)C(=O)N(c2ccccc2)C1=O)c1ccccc1
> 100 µM
CN1C(=O)C2(c3ccccc31)C1CC3C(CO1)C1C2C3(CO)CN1C#N (centres undefined)
> 100 µM
O=C(NCCCN(CCCCN(CCCNC(=O)c1cc(S(=O)(=O)O)cc(O)c1O)C(=O)c1cc(S(=O)(=O)O)cc(O)c1O)C(=O)c1cc(S(=O)(=O)O)cc(O)c1O)c1cc(S(=O)(=O)O)cc(O)c1O
> 100 µM

Quick batch: TGI for everything below.
1. O=C(O)CCN(CCCN(CCC(=O)O)CCC(=O)O)CCC(=O)O
2. CCN(CCO)CCNc1ccc(C)c2sc3ccccc3c(=O)c12
3. Cn1c(=O)c(Oc2ccc(F)cc2F)cc2cnc(NC3CCOCC3)nc21
4. CC(=O)Nc1cc2nc3n(c2cc1C)CCC3OC(C)=O (centres undefined)
5. COc1ccc(/C=C2\CCC(CCN3CCOCC3)C2=O)cc1 (centres undefined)

["> 100 µM", "14.2 µM", "> 25 µM", "> 100 µM", "> 100 µM"]

###

Tested on: SF-539 CNS
EXPERIMENT NOTES: NCI tumour cell line growth inhibition, 48 h; in the data active means GI50 below about 0.43 µM; inactive means the rest
// classify into true (1) (active), false (0) (inactive)

Hi, do you know how COc1cc2nc3cc([N+](=O)[O-])ccc3c(NCCNCC(C)O)c2cc1OC (configuration not stated) came out in this test?
false (0)

###

Test system: COLO 205 colon
EXPERIMENT NOTES: NCI tumour cell line growth inhibition, 48 h; in the data active = GI50 below about 0.43 µM; inactive = the rest
// classify into active, inactive

// below: answered compounds
CCCN(CCC)c1ccc(C=O)c(C)c1
inactive
CC(C)C(=O)c1c(C(F)(F)F)n([O-])c2ccccc2[n+]1=O
inactive
CCCCCCCCCCCCCCCCN(CC)CC
inactive
COc1cc(C2CC(=O)Nc3c2c(C)nn3-c2nc3ccccc3[nH]2)cc(OC)c1O (stereo unspecified)
inactive
COc1cc(/C=C/C(=O)c2c(-c3ccc(F)cc3)nc3sc(C)nn23)cc(OC)c1OC
inactive

Hi, do you know how CN(C)Cc1c(C(=O)NCCOc2ccc(C(=O)NO)cc2)oc2ccccc12 came out in this test?
active

###

Give GI50 for every item shown.
Tested on: HOP-62 NSCLC
EXPERIMENT NOTES: NCI tumour cell line growth inhibition, 48 h

Worked examples follow.
Cn1cc(C2=C(c3cn(CCCCCO)c4ccccc34)C(=O)NC2=O)c2ccccc21
5.92 µM
NC(=O)c1cc(Br)ccc1NC(=O)/C=C/c1ccccc1
5.47 µM

We now examine a further compound.
Tell me the measured GI50 of CC(=O)N[C@@H](Cc1ccc(OP(=O)(O)O)cc1)C(=O)N[C@H]1CCC(=O)N2CCC[C@@H](C(=O)NCc3ccccc3)N2C1=O , please.
> 25 µM

###

Tested on: NCI-H522 lung
EXPERIMENT NOTES: NCI tumour cell line growth inhibition, 48 h
Give TGI for every item shown.

O=c1c(-c2ccccc2)c(SCCN2CCOCC2)n(-c2ccccc2)c(=S)n1-c1ccccc1
> 100 µM
O=C(O)CN(c1ccc(F)cc1)S(=O)(=O)c1ccccc1
> 100 µM
O=C(O)CCN(CCCN(CCC(=O)O)CCC(=O)O)CCC(=O)O
> 100 µM
Cc1cccc(Cl)c1NC(=O)c1cnc(Nc2cc(N3CCOCC3)cc(S(C)(=O)=O)c2)s1
> 10 µM

Quick batch: TGI for everything below.
1. N#Cc1c(N/N=C\c2ccc(Cl)cc2)nc(N)nc1N1CCOCC1
2. CCOC(=O)C1SC(=Nc2ccc(Cl)cc2Cl)N=C1C (stereo unspecified)
3. CS(=O)(=O)O[C@H]1[C@H](O)c2ccccc2[C@@H]1N=[N+]=[N-]
4. NC(=O)CCC(NC(=O)c1c2ccccc2nc2ccccc12)C(=O)O (stereo unspecified)
5. O=S(=O)(CCC[C@H]1[C@@H](CCOCc2ccccc2)C2CCCN1O2)c1ccccc1 (stereo partly specified)
6. COC(=O)Cn1c(=O)oc2nc(-c3ccccc3)cc(C(F)(F)F)c21
7. O=C1CS(=O)(=O)C(c2cccc(Oc3ccccc3)c2)N1C1CC1 (stereo unspecified)

["> 100 µM", "> 100 µM", "> 100 µM", "> 100 µM", "> 100 µM", "> 100 µM", "> 100 µM"]

###

Test system: T-47D breast
EXPERIMENT NOTES: NCI tumour cell line growth inhibition, 48 h
Kindly return Criterion met if reported TGI is no lower than 60 µM; return Criterion not met if it is lower.

// below: answered molecules
O=C(c1ccccc1)c1nc2ccc(C(F)(F)F)cc2nc1N1CCN(c2ccccc2)CC1
Criterion not met
Cc1cc2c(cc1Cl)SC(c1ccccc1O)NS2(=O)=O (configuration not stated)
Criterion not met
Cc1cc(S(=O)(=O)NC(=NCCc2ccccc2)NN)c(S)cc1Cl
Criterion met

hey, is TGI for this one >= 60 µM? C[N+]12C=CC=C1C(N1CCCC1)c1scc(-c3ccc(F)cc3)c12 (configuration not stated)
Criterion met

hey, is TGI for this one >= 60 µM? C#CCOCn1cc(C)c(=O)[nH]c1=O
Criterion met

hey, is TGI for this one >= 60 µM? COc1ccc(OC)c(/C=C/c2ccnc3ccccc23)c1
Criterion not met

hey, is TGI for this one >= 60 µM? O=C1C=C(c2ccccc2)O/C1=C\C(=O)c1ccc(Cl)cc1
Criterion met
